target: TRIM25 CC-PRY/SPRY H505E/K508E (UniProt Q14258 189-630, H505E;K508E); assay: ITC; second fitted site; ITC and filter binding: 20 mM MES pH 6.5, 75 mM NaCl, 0.5 mM TCEP (ITC 20 C, filter binding on ice); NMR: 20 mM Na phosphate pH 6.5, 150 mM NaCl, 2 mM TCEP, 293 K; conditions: protein: recombinant; tags: His-Trx (removed); chain copies: 2; hairpin
Sequence (Q14258 189-630 H505E/K508E): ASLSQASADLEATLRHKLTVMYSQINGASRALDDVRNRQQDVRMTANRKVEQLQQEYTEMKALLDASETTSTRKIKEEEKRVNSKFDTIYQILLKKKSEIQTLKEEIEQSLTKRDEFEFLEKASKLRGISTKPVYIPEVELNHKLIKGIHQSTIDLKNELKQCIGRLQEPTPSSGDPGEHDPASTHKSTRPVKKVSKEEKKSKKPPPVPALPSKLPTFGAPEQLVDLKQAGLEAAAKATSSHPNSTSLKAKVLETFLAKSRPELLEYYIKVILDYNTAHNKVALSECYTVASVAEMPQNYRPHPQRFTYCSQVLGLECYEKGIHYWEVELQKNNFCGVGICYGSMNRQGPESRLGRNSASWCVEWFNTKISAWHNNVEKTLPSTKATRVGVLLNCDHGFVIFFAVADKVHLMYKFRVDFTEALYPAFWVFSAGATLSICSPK
RESULT_TYPE: pKd
For clarity, pKd is expressed as the negative log10 of concentration in mol/L.

Requested field: pKd. Item: GUAUAGUUUAAAAGGAGAUAACUAUAC (structured_RNA) [pre-let-7a-1@2]
5.38
